ASSAY NOTES: melting temperature; fluorescence melt of hairpins on a sequencing array, two-state fit, raised by 9.35 °C to match UV melts
EXPERIMENTAL PARAMETERS: sodium 0.088 M
MEASUREMENT TYPE: Tm (°C)
Note: unit °C is implicit; provide only the numeric part.

Consider the following illustrative entries.
> print(dat)
                        query.sequence  measurement.type  unit.of.measurement  quantitative.result
1  GCATACCGAAAGGTTGC (((.(((....))))))                Tm                   °C                   54
2    GATCGATCAGTCGATC ((((((....))))))                Tm                   °C                 51.1
3    GATCTTTTGGAAGATC ((((((....))))))                Tm                   °C                 44.3

Recorded Tm (sequence GAATACCGAAAGGTTTC (((.(((....)))))) ): 39.2

# sequence GCTACGCGAAAGCAAAGC (((..((....))..))) ; its Tm = 44.1

Sure, the documented Tm for GGTGTGGGAAACCGCACC ((((.((....)).)))) is 60.4

Hello, the source for this data is the array DNA melting data of Ke et al. (doi:10.1101/2024.01.08.574731), in case you need it.
